These measurements were taken from BigSolDB 2.1.

settings: in 1,4-dioxane, 288.15 K
Quantity kind: solubility (mole fraction)
Answers are plain numbers.

Request: Name the reported solubility (mole fraction) value associated with the compound c1ccc(-c2nnn[nH]2)cc1
Result: 0.0104

* * *

conditions: in methanol, 290.65 K
Quantity kind: solubility (mole fraction)
Numbers only.

Request: Need solubility (mole fraction), item c1ccc(-c2nnn[nH]2)cc1
Result: 0.018

* * *

conditions: in acetonitrile, 283.15 K
Quantity kind: solubility (mole fraction)
One number for each entry.

Request: // returns reported solubility (mole fraction) for input c1ccc(-c2nnn[nH]2)cc1
Result: 0.00181

* * *

conditions: in DMF, 300.65 K
Quantity kind: solubility (mole fraction)
Numbers only.

Request: Record request: solubility (mole fraction) value, item c1ccc(-c2nnn[nH]2)cc1
Result: 0.296

* * *

conditions: in toluene, 283.15 K
Quantity kind: solubility (mole fraction)
One number for each entry.

Request: // query solubility (mole fraction) value for entry c1ccc(-c2nnn[nH]2)cc1
Result: 2.5e-05

* * *

conditions: in 1,4-dioxane, 315.65 K
Quantity kind: solubility (mole fraction)

Request: Using the record for c1ccc(-c2nnn[nH]2)cc1 , report its solubility (mole fraction).
Result: 0.0172

* * *

conditions: in acetonitrile, 305.65 K
Quantity kind: solubility (mole fraction)
Give bare numbers.

Request: Requested field: solubility (mole fraction). Item: c1ccc(-c2nnn[nH]2)cc1
Result: 0.00389

* * *

conditions: in cyclohexane, 295.65 K
Quantity kind: solubility (mole fraction)

Request: Field request: solubility (mole fraction) | item: c1ccc(-c2nnn[nH]2)cc1
Result: 5.38e-06

* * *

conditions: in isopropanol, 293.15 K
Quantity kind: solubility (mole fraction)
One number for each entry.

Request: Please report the recorded solubility (mole fraction) for c1ccc(-c2nnn[nH]2)cc1 .
Result: 0.0171

* * *

settings: in DMF, 318.15 K
Quantity kind: solubility (mole fraction)
Give bare numbers.

Request: Bench note: what solubility (mole fraction) did c1ccc(-c2nnn[nH]2)cc1 show?
Result: 0.393

* * *

conditions: in acetone, 303.15 K
Quantity kind: solubility (mole fraction)
Numbers only.

Request: Which value of solubility (mole fraction) has been reported for c1ccc(-c2nnn[nH]2)cc1 in the records?
Result: 0.0236

* * *

settings: in 2-butanone, 293.15 K
Quantity kind: solubility (mole fraction)
One number for each entry.

Request: Entry c1ccc(-c2nnn[nH]2)cc1 : reported solubility (mole fraction) = ?
Result: 0.0185

* * *

settings: in 1,4-dioxane, 295.65 K
Quantity kind: solubility (mole fraction)
Answers are plain numbers.

Request: Dear colleague, I am looking for the recorded solubility (mole fraction) of the following molecule: c1ccc(-c2nnn[nH]2)cc1
Result: 0.012

* * *

details: in ethyl acetate, 298.15 K
Quantity kind: solubility (mole fraction)
Numbers only.

Request: Which solubility (mole fraction) is listed for c1ccc(-c2nnn[nH]2)cc1 ?
Result: 0.00773

* * *

details: in 1,4-dioxane, 285.65 K
Quantity kind: solubility (mole fraction)
Give bare numbers.

Request: Dear colleague, I am looking for the recorded solubility (mole fraction) of the following molecule: c1ccc(-c2nnn[nH]2)cc1
Result: 0.00982

* * *

conditions: in ethanol, 283.15 K
Quantity kind: solubility (mole fraction)

Request: // lookup solubility (mole fraction) for c1ccc(-c2nnn[nH]2)cc1
Result: 0.0148

* * *

details: in ethanol, 298.15 K
Quantity kind: solubility (mole fraction)

Request: Returns the measured solubility (mole fraction) for the input molecule. Input: c1ccc(-c2nnn[nH]2)cc1
Result: 0.02
